Data provenance: ChEMBL document CHEMBL1127592

- experimental.system: Type-1 angiotensin II receptor B (Rattus norvegicus)
- Sequence (P29089 whole entry): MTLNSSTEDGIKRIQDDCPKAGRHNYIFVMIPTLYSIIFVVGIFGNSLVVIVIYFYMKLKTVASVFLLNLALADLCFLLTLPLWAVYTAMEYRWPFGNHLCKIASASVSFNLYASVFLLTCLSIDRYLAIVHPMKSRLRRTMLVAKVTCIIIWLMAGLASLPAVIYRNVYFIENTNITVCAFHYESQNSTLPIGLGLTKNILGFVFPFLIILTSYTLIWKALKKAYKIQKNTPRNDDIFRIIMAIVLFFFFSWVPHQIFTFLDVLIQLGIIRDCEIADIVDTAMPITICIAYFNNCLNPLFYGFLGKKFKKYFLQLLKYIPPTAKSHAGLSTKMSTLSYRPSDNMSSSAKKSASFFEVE
experimental.endpoint: pKi
Answer as the number alone; pKi is minus log10 of concentration in mol/L.

Query: I have this compound here, CCCc1nc(C)n2nc(C(=O)O)nc2c1Cc1ccc(-c2ccccc2-c2nn[nH]n2)cc1 , and I need its recorded pKi.
Response: 7.46

Query: What value of pKi has been recorded for this entry: CCc1nc(C)n2nc(O)nc2c1Cc1ccc(-c2ccccc2-c2nn[nH]n2)cc1
Response: 7.46

Query: I have this compound here, CCCc1nc(C)n2nc(SC)nc2c1Cc1ccc(-c2ccccc2-c2nn[nH]n2)cc1 , and I need its recorded pKi.
Response: 6.76

Query: Can you look up the measured pKi of CCCc1ncn2nc(O)nc2c1Cc1ccc(-c2ccccc2-c2nn[nH]n2)cc1 for me?
Response: 7.34

Query: Recorded pKi of CCCc1nc(C)n2nc(COC)nc2c1Cc1ccc(-c2ccccc2-c2nn[nH]n2)cc1 , please.
Response: 7.82

Query: Param item = CCCc1nc(C)n2nc(CC)nc2c1Cc1ccc(-c2ccccc2-c2nn[nH]n2)cc1 ; retrieve measured pKi.
Response: 8.10

Query: Record request: pKi value, item CCCc1nc(C)n2nc(CO)nc2c1Cc1ccc(-c2ccccc2-c2nn[nH]n2)cc1
Response: 8.30

Query: Bench note: what pKi did CCCc1nc(CO)n2nc(C)nc2c1Cc1ccc(-c2ccccc2-c2nn[nH]n2)cc1 show?
Response: 7.57
